Source listed as ChEMBL document CHEMBL4680174.

Assay: Elimination rate constant Sprague-Dawley rat at 1 mg/kg, iv up to 24 hrs by LC-MS/MS analysis
Format: ADME, organism-based
Conditions: in vivo
attributeMeasured: k el at 24 h (s⁻¹)
Give bare numbers, in s⁻¹.

Exercise: Note down k el at 24 h recorded for C[C@H]1CO[C@@H]2Cn3cc(C(=O)NCc4ccc(F)nc4F)c(=O)c(O)c3C(=O)N12
Solution: 8.33e-06

====

Experiment: Stability in human liver microsomes assessed as parent compound remaining at 1 uM up to 24 hrs by LC-MS/MS analysis
Format: ADME, Microsome
Conditions: read-out: Stabilty
attributeMeasured: remaining at 24 h, 1 µM (%)
One number for each entry, in %.

molecularString: C[C@H]1CO[C@@H]2Cn3cc(C(=O)NCc4ccc5nonc5c4)c(=O)c(O)c3C(=O)N12
unitOfMeasure: %
remaining at 24 h, 1 µM: 105

Let us move to another entry and its remaining at 24 h, 1 µM.
Exercise: Note down remaining at 24 h, 1 µM recorded for C[C@H]1CO[C@@H]2Cn3cc(C(=O)NCc4ccc(F)nc4F)c(=O)c(O)c3C(=O)N12
Solution: 84

====

Assay: Thermodynamic solubility of compound in water at 2 mg after 24 hrs
Format: physicochemical
Conditions: read-out: Therm_solubility
attributeMeasured: solubility thermodynamic at 24 h (µg/mL)
One number for each entry, in µg/mL.

Examples with answers:
molecularString: Cc1cc2c(cc1CNC(=O)c1cn3c(c(O)c1=O)C(=O)N1[C@@H](C)CO[C@@H]1C3)OCCO2
unitOfMeasure: µg/mL
recordedValue: 56
//
molecularString: C[C@H]1CO[C@@H]2Cn3cc(C(=O)NCc4c(F)cncc4F)c(=O)c(O)c3C(=O)N12
unitOfMeasure: µg/mL
recordedValue: 347
//
molecularString: C[C@H]1CO[C@@H]2Cn3cc(C(=O)NCc4cccs4)c(=O)c(O)c3C(=O)N12
unitOfMeasure: µg/mL
recordedValue: 33

Would you mind giving solubility thermodynamic at 24 h for every compound in the list below?
1. C[C@H]1CO[C@@H]2Cn3cc(C(=O)NCc4cc5c(cc4Br)OCO5)c(=O)c(O)c3C(=O)N12
2. C[C@H]1CO[C@@H]2Cn3cc(C(=O)NCc4ccc5nonc5c4)c(=O)c(O)c3C(=O)N12

Solution:
1. 21
2. 2.85
